Values from ChEMBL document CHEMBL4359854

A collection of compounds and their measured IC50
Tested on: RAW264.7
PROTOCOL TEXT: Anti-inflammatory activity in mouse RAW264.7 cells assessed as inhibition of LPS-induced PGE2 production preincubated for 1 hr followed by LPS addition and measured after 24 hrs by EIA
Format: functional, cell-based

QUERY SMILES	IC50 [nM]
COc1cc(NC(=O)c2cccc(-c3cc(=O)c4c(OC)c(OC)c(OC)cc4o3)c2)cc(OC)c1OC	3400
COc1cc(NC(=O)c2cccc(-c3cc(=O)c4c(O)c(OC)c(OC)cc4o3)c2)cc(OC)c1OC	980
COc1ccccc1C(=O)Nc1cccc(-c2cc(=O)c3c(O)c(OC)c(OC)cc3o2)c1	310
COc1ccccc1C(=O)Nc1ccc(-c2cc(=O)c3c(OC)c(OC)c(OC)cc3o2)cc1	590
COc1ccccc1NC(=O)c1cccc(-c2cc(=O)c3c(OC)c(OC)c(OC)cc3o2)c1	1990
COc1ccccc1NC(=O)c1cccc(-c2cc(=O)c3c(O)c(OC)c(OC)cc3o2)c1	2380
